biological target: complement C5 (full length) (Homo sapiens, UniProt P01031); test: filter; among 11 best clones in 500 nM screen; Kd not given; conditions: tags: Quidel / Complement Technologies A120.14 / Advanced Research Technologies
Sequence (P01031 whole entry): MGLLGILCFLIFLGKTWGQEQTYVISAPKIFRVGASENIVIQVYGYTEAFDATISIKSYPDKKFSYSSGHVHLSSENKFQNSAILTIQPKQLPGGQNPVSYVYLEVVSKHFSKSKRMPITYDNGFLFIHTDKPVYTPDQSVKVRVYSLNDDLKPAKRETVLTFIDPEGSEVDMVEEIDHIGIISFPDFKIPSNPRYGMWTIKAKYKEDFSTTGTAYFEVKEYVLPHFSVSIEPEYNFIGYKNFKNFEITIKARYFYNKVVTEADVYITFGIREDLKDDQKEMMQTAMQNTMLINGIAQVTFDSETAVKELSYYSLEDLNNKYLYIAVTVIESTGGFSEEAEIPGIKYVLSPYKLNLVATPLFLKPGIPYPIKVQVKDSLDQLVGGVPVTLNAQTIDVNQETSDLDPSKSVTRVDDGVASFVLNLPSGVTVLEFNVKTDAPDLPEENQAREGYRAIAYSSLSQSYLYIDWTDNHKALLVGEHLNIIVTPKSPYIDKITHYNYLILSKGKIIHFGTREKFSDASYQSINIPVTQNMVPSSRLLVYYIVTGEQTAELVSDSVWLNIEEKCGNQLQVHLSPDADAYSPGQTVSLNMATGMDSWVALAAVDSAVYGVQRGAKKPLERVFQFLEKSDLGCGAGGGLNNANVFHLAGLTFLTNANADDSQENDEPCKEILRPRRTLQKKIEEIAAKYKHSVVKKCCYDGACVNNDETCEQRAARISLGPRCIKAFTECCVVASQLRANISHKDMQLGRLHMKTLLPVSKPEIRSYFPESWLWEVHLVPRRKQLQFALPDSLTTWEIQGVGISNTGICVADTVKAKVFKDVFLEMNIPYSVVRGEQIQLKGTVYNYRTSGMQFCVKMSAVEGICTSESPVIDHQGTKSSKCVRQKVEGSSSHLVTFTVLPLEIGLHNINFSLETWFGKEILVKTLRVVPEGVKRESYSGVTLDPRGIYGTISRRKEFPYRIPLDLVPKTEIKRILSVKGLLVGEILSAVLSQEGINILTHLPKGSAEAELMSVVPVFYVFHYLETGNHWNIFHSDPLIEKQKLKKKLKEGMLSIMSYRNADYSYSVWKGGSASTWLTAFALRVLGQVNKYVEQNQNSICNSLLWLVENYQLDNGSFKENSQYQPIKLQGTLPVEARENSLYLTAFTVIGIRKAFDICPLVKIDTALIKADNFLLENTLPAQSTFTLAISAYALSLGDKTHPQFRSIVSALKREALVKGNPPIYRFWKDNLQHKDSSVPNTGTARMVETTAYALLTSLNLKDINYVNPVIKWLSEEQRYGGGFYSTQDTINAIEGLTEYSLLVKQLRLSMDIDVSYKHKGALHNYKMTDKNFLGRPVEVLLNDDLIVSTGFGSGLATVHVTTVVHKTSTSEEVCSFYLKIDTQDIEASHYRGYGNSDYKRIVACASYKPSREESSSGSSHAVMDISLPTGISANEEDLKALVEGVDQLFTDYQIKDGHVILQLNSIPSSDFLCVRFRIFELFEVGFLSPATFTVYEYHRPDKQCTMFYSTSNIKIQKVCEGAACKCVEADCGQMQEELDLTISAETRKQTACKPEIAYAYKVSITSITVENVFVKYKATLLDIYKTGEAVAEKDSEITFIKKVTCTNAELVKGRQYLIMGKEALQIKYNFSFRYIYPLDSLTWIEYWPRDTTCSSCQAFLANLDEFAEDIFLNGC
MEASUREMENT KIND: binding result

* doped clone SEQ 93 (mixed, dRmY: A,G deoxy; C,U 2'-OMe) RNA: GGGAGAGGAGAGAACGUUCUACCUUGUUGUGGCACAGCCAACCCUACGCACGGAUCGCCCGGUUACGACUAGCAUCGAUG | binds
* doped clone SEQ 88 (mixed, dRmY: A,G deoxy; C,U 2'-OMe) RNA: GGGAGAGGAGAGAACGUUCUACCUUGGUUUGGCACAGGCAUACAUACGCAGGGGUCGAUCGGUUACGACUAGCAUCGAUG | binds
* doped clone SEQ 90 (mixed, dRmY: A,G deoxy; C,U 2'-OMe) RNA: GGGAGAGGAGAGAACGUUCUACCUUGGUUUGGCACAGGCAUAAAUACGCAGGGCUCGAUCGGUUACGACUAGCAUCGAUG | binds
